- Target System: recombinant N-terminal His6-tagged human FABP3 (human)
- Sequence (P05413 2-133): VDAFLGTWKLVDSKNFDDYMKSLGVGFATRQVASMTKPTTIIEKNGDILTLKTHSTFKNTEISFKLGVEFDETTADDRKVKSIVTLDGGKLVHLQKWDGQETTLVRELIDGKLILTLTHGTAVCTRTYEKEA
- Protocol Details: MST; Monolith NT.115; 20 nM NT-650-NHS-labelled FABP3, unlabelled peptides 500 µM to 0.0153 µM in two-fold dilutions; 25 °C; PBS with 0.05% Tween 20, pH 7.4; 40% MST power, 60% LED power; 1:1 fit; triplicates
Ends that are not written are not given here.
pKd values by entry
When answering, recall that pKd equals minus log10 of the concentration in mol/L, and write that number alone.

Endpoint output: pKd of ACGLSGLGVA-NH2 [A-CooP] . Value?
5.66
